Values from ChEMBL document CHEMBL1201862

- Tested on: CAKI-1
- test_summary: NCI tumour cell line growth inhibition, 48 h
Active and inactive are the calls of the source. Rule as the data show it: active = GI50 up to about 1.1 µM and inactive = higher. Starred links: 1 amine or outer side, 2 acyl side, 3 side chain; linkers in the order of their positions; H or OH if unused. Residues, ends and D or L forms follow the SMILES beside them. *: point of attachment. γGlu = O=C(O)[CH](CCC(=O)[*:2])N[*:1]; NHOH = ON*
Respond with a class label; see True (active), False (inactive)

O=c1ccs[nH]1    False
CC(=O)Nc1c(C)ccc2c1C(=O)c1ccccc1C2=O    False
CC(=O)c1cccc(NC(=O)C(=O)c2c(O)oc3ccccc3c2=O)c1    False
O=C(N/C(=C\c1cc(Cl)ccc1Cl)c1nc2c(O)nc(S)nc2[nH]1)c1ccccc1    False
CCOC(=O)CNC(=O)C(CCC(=O)NO)NC(=O)CCC(N)C(=O)O (stereo not drawn) (γGlu-Glu(NHOH)-Gly-OEt; configuration not given here)    False
O=C(C[C@H](NC(=O)OCc1ccccc1)C(=O)NC1Cc2ccccc2OC1=O)OCc1ccccc1 (stereo partly drawn)    False

Req: Assay outcome for `CCN(CCCl)CCCCCNc1c2ccccc2nc2ccc(OC)cc12` : what was it?
Resp: False
